Origin of values: patent US20220017636A1

tested_on: T1, MAGEB2 peptide … (SEQ ID NO: 1) complexed with HLA-A*02:01 on the cell surface (human)
T1 construct: whole, on cells; also called pMAGE-HLA; MAGEB2 pMHC
procedure_text: flow cytometry, peptide-loaded T2 cells;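 further: binding of single-chain Fv antibody constructs, raised in XenoMouse, to peptide-pulsed T2 cells measured by flow cytometry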
So I've got a bunch of binders here, and I need their Signal/background values.

Query :: Data request, read-out Signal/background, for 18089-D12 (scFv, scFv in bacterial lysate, detected with anti-Flag M2) scFv: EVQLLESGGGVVQPGRSLRLSCAASGFTFSTYGMHWVRQAPGKGLEWVAVISYDGSNKYYADSVKGRFTISRDDSKNTLYLQMNSLRAEDTAVYYCARGQLLTGYWGQGTLVTVSSGGGGSGGGGSGGGGSELVMTQSPSSLSASVGDRVTITCRASQGISNYLAWYQQKPGKVPKLLIYAASTLQSGVPSRFSGSGSGTDFTLTISSLQPEDVATYYCQKYNSAPFTFGPGTKVEIK
Result :: 176

Query :: And the next one, 18182-H9 (scFv, scFv in bacterial lysate, detected with anti-Flag M2) scFv: EVQLLESGGGLVQPGGSLRLSCAASGFTFSSHAMSWVRQAPGKGLEWVSAISGSGGGTYYADSVKARFTISRDNSKNTLYLQMNSLRAEDTAVYYCATGKGVHLGFDYWGQGTLVTVSSGGGGSGGGGSGGGGSELVLTQPPSVSVAPGQTARITCGGNNIGSKSVHWHQQKPGQAPVLVVYDDNDRPSGIPERFSGSNSGNTATLTISRVEAGDEADFYCQVWDSSSDHVVFGGGTKLTVL ?
Result :: 481

Query :: And the next one, 18089-D11 (scFv, scFv in bacterial lysate, detected with anti-Flag M2) scFv: EVQLLESGPVLVKPTQTLTLTCTFSGFSFTTHKMGVDWIRQPPGKALEWLALIYWNDDKRYNPSLQSRLTITKDTSKNQVVLTMTNMDPVDTATYYCAYRRYNWNYENWFDPWGQGTLVTVSSGGGGSGGGGSGGGGSELVMTQSPSSLSASVGDRVTITCRASQSISNYFNWYQQKPGKAPKLLIYAASSLQSGVPSRFSGSGSGTDFTLTISSLQPEDFATYYCQQSYITPFTFGGGTKLEIK ?
Result :: 78
